Compiled notes: published pIC50 values involving Cannabinoid receptor 1 (Rattus norvegicus).
pIC50: −log10 of the molar value.

// worked examples, pIC50 included
# smiles notation, pIC50
records = [
    ("CCCN(CCC)C(=O)Cc1c(-c2ccccc2)[nH]c2c(F)cccc12", "< 6.00"),
    ("CCn1nnc(-c2nn(-c3ccc(Cl)cc3Cl)c(-c3ccc(Cl)cc3)c2C)n1", "< 6.00"),
]

Reported pIC50 for O=C(c1nn(-c2ccc(Cl)cc2Cl)c(-c2ccc(Br)cc2)c1Cn1cncn1)N1CCN(c2cccc(Cl)c2Cl)CC1 : what is it? 8.24
